What follows is a record of GI50 for EKVX.
Recorded endpoint: GI50 (µM)

1. CC1=C2[C@@H](CC1)[C@]1(C)O[C@@](C3CC3)(C[C@H]1OC(=O)CO)[C@H]2OC(=O)C=Cc1ccccc1 [Compound (Is)]    14
2. CC(=O)O[C@@H]1C[C@]2(C(C)C)O[C@@]1(C)[C@@H]1CCC(C)=C1[C@@H]2OC(=O)C=Cc1ccccc1 [(Im)]    20
3. CC1=C2[C@@H](CC1)[C@]1(C)O[C@@](c3ccccc3)(C[C@H]1OC(=O)CO)[C@H]2OC(=O)C=Cc1ccccc1 [(Ir)]    15
4. CC1=C2[C@@H](CC1)[C@]1(C)O[C@@](C(C)C)(C[C@H]1OC(=O)[C@H](C)O)[C@H]2OC(=O)C=Cc1ccccc1 [(Il)]    10
5. CC1=C2[C@@H](CC1)[C@]1(C)O[C@@](C(C)C)(C[C@H]1OC(=O)CO)[C@H]2OC(=O)C1CC1c1ccccc1 (stereo partly drawn) [Compound (Ij)]    13
6. CC1=C2[C@@H](CC1)[C@]1(C)O[C@@](C3CCCCC3)(C[C@H]1OC(=O)CO)[C@H]2OC(=O)C=Cc1ccccc1 [(Iq)]    11
